target: α7-subtype of nicotinic receptors (Rattus norvegicus, UniProt Q05941)
Sequence (Q05941 23-502): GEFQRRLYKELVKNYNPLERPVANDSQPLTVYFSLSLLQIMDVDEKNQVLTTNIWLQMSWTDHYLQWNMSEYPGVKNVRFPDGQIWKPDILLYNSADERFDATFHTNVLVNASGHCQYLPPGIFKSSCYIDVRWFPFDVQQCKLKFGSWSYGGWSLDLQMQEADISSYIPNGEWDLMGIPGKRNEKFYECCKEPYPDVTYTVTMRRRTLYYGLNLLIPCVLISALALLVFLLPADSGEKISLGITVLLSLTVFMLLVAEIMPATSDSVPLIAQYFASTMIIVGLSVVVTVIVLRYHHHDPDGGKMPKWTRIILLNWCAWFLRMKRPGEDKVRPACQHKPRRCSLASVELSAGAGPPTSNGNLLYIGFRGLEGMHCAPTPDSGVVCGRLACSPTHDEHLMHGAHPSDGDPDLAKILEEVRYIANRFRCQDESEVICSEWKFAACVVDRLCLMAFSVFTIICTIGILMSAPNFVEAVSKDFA
pIC50: −log10 of the molar value.
Measured pIC50, listed per entry.

>>> measured_result("c1ccc(Oc2ccccc2-c2nnc(N3CCN4CCC3CC4)o2)cc1 [Compound A1]")
"> 7.00"

// next item, pIC50 requested
Entry under review: c1ccc(Oc2cccc(-c3nnc(N4CCN5CCC4CC5)o3)c2)cc1 [Compound A2] . Reported pIC50?
> 6.00
